- Assay Target: von Willebrand factor (VWF) (Homo sapiens, UniProt P04275 P04275:764-2813)
- Assay Procedure: filter; Bmax 63%; 2 mM CaCl2, 37 C
- Stated Conditions: tags: factor VIII free, Haematologic Technologies Inc; label: 5'-32P
pKd: −log10 of the molar value.
Reported Metric: pKd

> print(dat)
                                     binder  readout.value
1  ACGAACUGCCCUCGAUCGACGCACAGACGUACACA (ssRNA, 2'-F C and U; 2'-OH A and G; 3' idT) [T81]           8.38
